TGI for assorted compounds
system: SNB-19 CNS; experiment: NCI tumour cell line growth inhibition, 48 h
Kindly answer with a numeric value in µM, unit omitted.

Sample answers from the record:
Cc1cc2c(-c3nc4ccccn4c3NC34CC5CC(CC(C5)C3)C4)c(O)c(O)cc2c(O)c1-c1c(C)cc2c(-c3nc4ccccn4c3NC34CC5CC(CC(C5)C3)C4)c(O)c(O)cc2c1O :: 3.99
COc1ccccc1-c1nccc(COc2ccccc2C[C@@H](Oc2ncnc3sc(-c4ccc(F)cc4)c(-c4ccc(OCCN5CCN(C)CC5)c(Cl)c4C)c23)C(=O)O)n1 :: 4.58
O=C1Nc2ccc(Br)cc2C1=Nc1ccc(Cl)cc1 :: 97
O=C(Nc1nc2ccc(F)cc2s1)c1cccnc1Nc1ccc(Cl)cc1Cl :: 14.7
NC1(C(=O)O)CSSC1 :: 84

Value of TGI reported for the compound O=C1CN(c2ccccc2)C(=O)C1C(=O)Nc1ccc(Cl)c(Cl)c1 (centres undefined) is 17.2

Entry CC(C)c1ccc2c(c1)c(SC(C)(C)C)c(CC(C)(C)C(=O)O)n2Cc1ccc(Cl)cc1 , TGI reported as 22.7

Recorded result, CC(C)NC(=O)OCc1c(COC(=O)NC(C)C)n(C)c2c1ccc1cc(Cl)c(Cl)cc12 , TGI: 26.6

# compound O=C1c2c(Br)sc(Br)c2[C@H]2OC(=S)N[C@@H]12 ; its TGI = 30

====

test system: OVCAR-3 ovarian; assay: NCI tumour cell line growth inhibition, 48 h
Rule: TGI under 20 µM gives F, otherwise T.

Consider the following illustrative entries.
N#CC1=C(N)NC(=S)C(C#N)C12Nc1ccccc1S2 (configuration not stated) :: T
Fc1ccc(OCc2ccc3nc(-c4ccccc4)c(Cl)nc3c2)cc1 :: T
CCOC(=O)C(=Cc1c(-c2ccccc2)[nH]c2ccccc12)C(=O)OCC :: T
Cc1cc(Nc2cc(N3CCN(C)CC3)nc(C#Cc3ccccc3)n2)n[nH]1 :: F
C#CCn1cc(C=C2C(=O)NC(=S)NC2=O)c2cc(Cl)ccc21 :: F
C=C1c2ccccc2N(S(=O)(=O)c2ccc(C)cc2)C12CCCCC2 :: T

Given the entry O=C1Cc2ccccc2CCc2ccccc21 , answer whether its TGI meets or surpasses 20 µM.
T

Determine whether this compound has TGI no lower than 20 µM: Cc1cc(C)c2nccc(NCCCN(C)C)c2c1[N+](=O)[O-]
T

Does the reported TGI for COc1ccc(-c2cn(-c3cc(OC)c(OC)c(OC)c3)c(=O)n2-c2ccccc2)cc1 fall at or above the 20 µM mark?
T

Does TGI meet or surpass 20 µM for CCCC/C=C1\CCC(CN2CCCC2)C1=O (configuration not stated) ?
T

Exam item: decide whether the reported TGI for NCCNc1nc2ccccc2c2c(=O)c3cc(F)cc(Cl)c3sc12 is at least 20 µM.
F

====

The following compounds are shown together with reported TGI values.
tested on: SF-295 CNS; experiment: NCI tumour cell line growth inhibition, 48 h

Worked examples follow.
CC(=O)OC1COC(N2c3ccccc3[C@@H]3CCc4c([nH]c5ccccc45)[C@@H]32)C(OC(C)=O)C1OC(C)=O (mixture of isomers) :: > 100 µM
C=CCN(N=O)C(=O)ON1C(=O)CCC1=O :: > 100 µM
COc1cccc(C2CC(=O)Nc3cc4c(cc32)CCC4)c1OC (stereo not given) :: 12.4 µM

compound COc1cccc(Nc2nc3c([nH]2)c(=O)n(C)c(=O)n3C)c1 , TGI observed: > 10 µM

Noted for CCOC(=O)c1cc(C(=O)O)c(=O)n2c1[nH]c1ccccc12 : its TGI reads > 100 µM

====

system: MCF7 breast; test: NCI tumour cell line growth inhibition, 48 h
readoutName: log10 TGI (log10 of the value in µM)
Log scale reminder: TGI in µM, then log10 taken.

Sample answers from the record:
C[N+]1(CCCCN2c3ccccc3Sc3cc(N=[N+]=[N-])ccc32)CCN(C(=O)CCNC(=O)Cc2ccc(C(=O)c3ccccc3)cc2)CC1 :: 1.83
NCCNc1nc2ccccc2c2c(=O)c3cc(F)cc(Cl)c3sc12 :: 0.50
COC(=O)C1=C(C(=O)OC)C(C(=O)OC)C(C(=O)OC)C(C(=O)OC)(C(=O)OC)C(C(=O)OC)=C1C(=O)OC (stereo not given) :: 1.53
Cc1cc(Nc2cc(N3CCN(C)CC3)nc(C#Cc3ccccc3)n2)n[nH]1 :: 1.12
Cc1ccc(NCCNCC(O)CO)c2c(=O)c3ccccc3sc12 (stereo not given) :: 0.42

Form: item COc1ccc2c(c1)-c1nc(=S)n(CCN(C)C)c3ccc([N+](=O)[O-])c(c13)N2 ; test system MCF7 breast; log10 TGI: 0.54

Tested on MCF7 breast: CCCCCCCCCCCCNC(=O)[C@H]1CSC(c2ccsc2)N1 (stereo not given in full) . Observed log10 TGI: 0.23

Form: item CCOC(=O)C(=Cc1c(-c2ccccc2)[nH]c2ccccc12)C(=O)OCC ; test system MCF7 breast; log10 TGI: 1.26

Fill in: MCF7 breast log10 TGI for COC(=O)[C@@H]1[C@H]2CC[C@]3(C)[C@@H](OC(C)=O)CC[C@H]3[C@@H]2CC[C@H]1C1(C)SCCS1 = 1.92

Note to self: log10 TGI of Fc1cccc(F)c1C1SCc2nc3cc(Cl)ccc3n21 (stereo not given) with MCF7 breast was 1.53

====

system: SF-295 CNS; experiment: NCI tumour cell line growth inhibition, 48 h
readoutName: TGI

Before answering, review these 5 worked examples.
CC(C)(C)[Si](C)(C)OC1CCOC1(O)c1ccccn1 (stereo not given) :: > 100 µM
O=C(O)CCSc1ncnc2nc[nH]c12 :: > 100 µM
BrC(Br)([P+](c1ccccc1)(c1ccccc1)c1ccccc1)[P+](c1ccccc1)(c1ccccc1)c1ccccc1 :: > 100 µM
Cc1cc(C)c2nccc(NCCCN(C)C)c2c1[N+](=O)[O-] :: > 100 µM
Brc1ccc(/C(N=N/C(=N\Sc2ccccc2)c2ccc(Br)cc2)=N/Sc2ccccc2)cc1 :: > 100 µM

// TGI (SF-295 CNS) for CO[C@H](C)[C@](O)(C(=O)OCC1=CCN2CC[C@@H](O)[C@H]12)C(C)C = > 100 µM

Measured TGI (SF-295 CNS), entry COc1ccc2c(c1)c(-c1cc(-c3cn(C)c4ccc(OC)cc34)[nH]n1)cn2C : > 100 µM

TGI of O=C(O)Cn1c[n+](NC(=O)Cc2ccccc2)cn1 , assay on SF-295 CNS, is > 10 µM

Field TGI (system: SF-295 CNS) for entry COC(=O)C1=C(C(=O)OC)N(C(C)C)[C@H]2C(C(=O)OC)=C(C(=O)OC)N(C(C)C)[C@@H]12 = > 100 µM

GET /values?item= COc1ccc(C(=C2C(=O)OC(=O)C2=C(C)C)c2ccc(OC)cc2)cc1 &system= SF-295 CNS returns TGI: > 100 µM

====

system: KM12 colon; assay: NCI tumour cell line growth inhibition, 48 h
readoutName: TGI

A selection of reference data follows.
O=C1Cc2ccccc2CCc2ccccc21 :: > 100 µM
O=C1Nc2ccc(Br)cc2C1=Nc1ccc(Cl)cc1 :: 24.8 µM
COc1cc(/C=C2/C(=O)N(C(=O)c3ccccc3O)N=C2C)ccc1O :: > 100 µM

Note: attention shifts to another entry.
Input OCCN(CCO)c1ncnc2c1sc(=S)n2-c1ccccc1 . Output TGI: > 100 µM

====

tested on: NCI-H460 lung; experiment: NCI tumour cell line growth inhibition, 48 h
readoutName: TGI (µM)
Report only the number, with the unit µM understood.

Field: example entries. Status: answers known.
COC(=O)Cc1c2n(c3ccccc13)C(=O)N1c3ccccc3C(CC(=O)OC)C21 (stereo not given) :: 33.6
COc1ccc2c(c1)CCC(CN1CCN(CCOC(c3ccccc3)c3ccccc3)CC1)C2O (stereo not given) :: 35.8
Nc1ccc2c(SCC(=O)Nc3ccccc3-c3ccccc3NC(=O)CSc3c4ccccc4nc4cc(N)ccc34)c3ccccc3nc2c1 :: 97.8
COc1ccc(-c2nn(-c3cccc(Cl)c3)cc2/C=C2\C(=N)N(c3ccccc3)N=C2N)cc1 :: 7.4
C[C@@H](CCO)OC1OC(COC(=O)C(C)(C)C)C(OC(=O)C(C)(C)C)C(OC(=O)C(C)(C)C)C1OC(=O)C(C)(C)C (stereo not given in full) :: 36.6
Cc1cccc2c(N)c3cccc(C(=O)NCC[N+](C)(C)[O-])c3nc12 :: 10.2
COc1ccc2c(c1)-c1nc(=S)n(CCN(C)C)c3ccc([N+](=O)[O-])c(c13)N2 :: 1.71
COc1ccc2nc3cc(Cl)ccc3c(Nc3ccc(O)c(CN4CCCC4)c3)c2c1 :: 6.15

TGI reading for CCOC(=O)/N=c1\ssc(Cl)c1Cl : 54.3

Form: compound = Cc1ccc2nc(Nc3ccccc3C)c(Nc3ccccc3C)nc2c1 ; TGI = 45

Given item O=C1c2cc3c(cc2-c2c1c1cc(F)c(F)cc1c(=O)n2C[C@H](O)CO)OCO3 , the value recorded as its TGI is 0.141
